The measurements presented in this section are drawn from PubChem BioAssay AID2060882.

- System: 898857-211-R-J1-PDC complex spheroids, growth % test/control;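 note: spheroids exposed to compound for seven days before readout; 100% = DMSO vehicle control wells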
- experiment_description: Anticancer human tumor 898857-211-R-J1-PDC patient-derived melanoma cell line growth inhibition [RAS]; active = viability on the fitted dose curve at most 10% of control; inactive = the rest
- setup_conditions: second compound 0.3 µM; first compound 1 µM
Hi there, use one of these labels in your reply, thanks! true (1) for active, false (0) for inactive

# compound, cat
records = [
    ("CC(=O)OC12COC1CC(O)C1(C)C(=O)C(O)C3=C(C)C(OC(=O)C(O)C(NC(=O)OC(C)(C)C)c4ccccc4)CC(O)(C(OC(=O)c4ccccc4)C21)C3(C)C (centres undefined) + CCn1c(-c2cccnc2C(C)OC)c2c3cc(ccc31)N1CCOC(CC(NC(=O)C(C(C)C)N(C)C(=O)C3(F)CCN(C(=O)C#CC(C)(C)N(C)C)CC3)C(=O)N3CCCC(N3)C(=O)OCC(C)(C)C2)C1", "true (1)"),
    ("Nc1ccn(C2OC(CO)C(O)C2(F)F)c(=O)n1 (centres undefined) + CCn1c(-c2cccnc2C(C)OC)c2c3cc(ccc31)N1CCOC(CC(NC(=O)C(C(C)C)N(C)C(=O)C3(F)CCN(C(=O)C#CC(C)(C)N(C)C)CC3)C(=O)N3CCCC(N3)C(=O)OCC(C)(C)C2)C1", "true (1)"),
    ("C[C@@H](NC(=O)c1ncnc(N)c1Cl)c1ncc(C(=O)Nc2cc(C(F)(F)F)c(Cl)cn2)s1 + CCn1c(-c2cccnc2C(C)OC)c2c3cc(ccc31)N1CCOC(CC(NC(=O)C(C(C)C)N(C)C(=O)C3(F)CCN(C(=O)C#CC(C)(C)N(C)C)CC3)C(=O)N3CCCC(N3)C(=O)OCC(C)(C)C2)C1", "false (0)"),
]

Now for another entry.
Query block: Kindly provide the recorded test outcome for the following compound: CC(C)NCC(C(=O)N1CCN(c2ncnc3c2C(C)CC3O)CC1)c1ccc(Cl)cc1 (centres undefined) + CCn1c(-c2cc(N3CCN(C)CC3)cnc2C(C)OC)c2c3cc(ccc31)-c1csc(n1)CC(NC(=O)C1CC1C)C(=O)N1CCCC(N1)C(=O)OCC(C)(C)C2
Result block: false (0)
